Values compiled from patent US12398154B2.

system-under-test: KRas Q61H (Homo sapiens, UniProt P01116, Q61H)
Construct: Biotinylated KRas (corresponding to amino acids 1-169, produced at Accelegan Inc.); biotin (biotinylated); purchased Accelegan Inc
Sequence (P01116 1-169 isoform P01116-2 Q61H): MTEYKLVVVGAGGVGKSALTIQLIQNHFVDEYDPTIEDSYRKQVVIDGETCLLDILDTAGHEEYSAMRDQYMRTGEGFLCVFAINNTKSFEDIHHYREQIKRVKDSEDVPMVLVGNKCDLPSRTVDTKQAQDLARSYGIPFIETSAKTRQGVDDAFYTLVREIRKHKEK
protocol-notes: KRas binding assay (TR-FRET displacement);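 also: TR-FRET signal read after one hour at room temperature, IC50 derived by four-parameter fitting of percent-of-control values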
quantity-kind: IC50 (nM)

1. O=C1CCC2(CCCN(c3nc(OCC45CCCN4CCC5)nc4c(F)c(-c5cccc6cccc(F)c56)ncc34)C2)C1 (stereo not shown)
2. Nc1cc2n(n1)CCN(c1nc(OCC34CCCN3CCC4)nc3c(F)c(-c4cccc5cccc(F)c45)ncc13)C2
3. NC(=O)c1cc2n(n1)CCCN(c1nc(OCC34CCCN3CCC4)nc3c(F)c(-c4cccc5cccc(F)c45)ncc13)C2
[in] Order the records, beginning with the lowest IC50 and ending with the highest. Reply with the labels, ordered as the question asks.
[out] 3, 2, 1
(3: 4610 nM, 2: 7500 nM, 1: 18500 nM)

====

Documented IC50 across a set of molecules
Test system: phospho-ERK in MKN1 (WTdep) cells
protocol-notes: Inhibition of KRas-mediated phosphorylation of ERK (in-cell western)
Assay type: cell-based
setup-conditions: Homo sapiens, MKN-1, 3 hours compound, phospho-ERK normalized to GAPDH
Procedure: Diluted compounds were then added in a final concentration of 0.5% DMSO. After 3 hours, 50 μL of 4.0% formaldehyde was added and the plates incubated at room temperature for 20 minutes. […] The amount of phospho-ERK was determined using an antibody specific for the phosphorylated form of ERK and compared to the amount of GAPDH. […] The plates were washed 3× with 150 uL PBS+0.1% Tween 20. Plates were imaged dry on a Li-COR Odyssey CLX plate reader. […]
Numeric answer only, unit nM assumed.

molecule	readout-units	IC50
CCc1c(F)ccc2cc(O)cc(-c3ncc4c(N5CCOCC(C)(O)C5)nc(OC[C@@]56CCCN5C[C@H](F)C6)nc4c3F)c12 (stereo partly shown)	nM	5

[in] Report measured IC50; entry is CCc1c(F)ccc2cc(O)cc(-c3ncc4c(NCCCc5ccncc5)nc(OC[C@@]56CCCN5C[C@H](F)C6)nc4c3F)c12
[out] 701

[in] Return value of IC50 for input CCc1c(F)ccc2cc(O)cc(-c3ncc4c(N5CCC[C@@H](O)C5)nc(OC[C@@]56CCCN5C[C@H](F)C6)nc4c3F)c12 , no commentary.
[out] 4

[in] Tell me its IC50 given C#Cc1c(F)ccc2cc(O)cc(-c3ncc4c(NCc5c[nH]c6ncccc56)nc(OC[C@@]56CCCN5C[C@H](F)C6)nc4c3F)c12 as the entry.
[out] 13

[in] Return IC50 for the following molecule: C#Cc1c(F)ccc2cccc(-c3ncc4c(N5CCCC6(CNC(=O)C6)C5)nc(OC[C@@]56CCCN5C[C@H](F)C6)nc4c3F)c12 (stereo partly shown)
[out] 1180

[in] Consider the molecule C#Cc1c(F)ccc2cc(O)cc(-c3ncc4c(N5CCCC6(CNC(=O)C6)C5)nc(OC[C@@]56CCCN5C[C@H](F)C6)nc4c3F)c12 (stereo partly shown) . State its measured IC50.
[out] 406

[in] Using known records, supply IC50 for CCc1c(F)ccc2cc(O)cc(-c3ncc4c(NCCCc5cc[nH]n5)nc(OC[C@@]56CCCN5C[C@H](F)C6)nc4c3F)c12
[out] 53

[in] Supply IC50 value. Item: CCc1c(F)ccc2cc(O)cc(-c3ncc4c(NCCC(N)=O)nc(OC[C@@]56CCCN5C[C@H](F)C6)nc4c3F)c12
[out] 282

[in] Identify the reported IC50 for the following entry. C#Cc1c(F)ccc2cc(O)cc(-c3ncc4c(N5CCC[C@@](C)(O)C5)nc(OC[C@@]56CCCN5C[C@H](F)C6)nc4c3F)c12
[out] 10

[in] Item CCc1c(F)ccc2cc(O)cc(-c3ncc4c(N5CC6CC(O)C(C6)C5)nc(OC[C@@]56CCCN5C[C@H](F)C6)nc4c3F)c12 (stereo partly shown) : provide IC50
[out] 10

[in] Note down IC50 recorded for C[C@@H]1C[C@@H]1c1c(Cl)cc(O)cc1-c1ncc2c(N3CCCC(C)(O)C3)nc(OCC34CCCN3CCC4)nc2c1F (stereo partly shown)
[out] 27
